MEASURED_ON: Cannabinoid receptor 2 (Homo sapiens, UniProt P34972)
Sequence (P34972 whole entry): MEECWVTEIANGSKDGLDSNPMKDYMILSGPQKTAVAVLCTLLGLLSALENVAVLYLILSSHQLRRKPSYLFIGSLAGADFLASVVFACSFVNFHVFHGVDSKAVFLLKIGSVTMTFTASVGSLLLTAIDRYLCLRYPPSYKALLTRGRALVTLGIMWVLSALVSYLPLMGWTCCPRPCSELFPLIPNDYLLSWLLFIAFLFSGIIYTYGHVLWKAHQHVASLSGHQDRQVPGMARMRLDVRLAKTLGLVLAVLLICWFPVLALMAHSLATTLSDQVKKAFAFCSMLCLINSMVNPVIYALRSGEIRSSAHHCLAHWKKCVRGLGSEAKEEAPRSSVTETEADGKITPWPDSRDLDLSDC
EXPERIMENT_DESCRIPTION: Agonist activity at human CB2 receptor after 4 hrs by luciferase reporter gene assay
This section presents compounds with their documented pEC50 values.
For clarity, pEC50 is expressed as the negative log10 of concentration in mol/L.

Some compounds with recorded pEC50:
- CC1OCc2sc(NC(=O)CC(C)(C)C)c(C(=O)N3CCCCC3)c21 (stereo not drawn): 7.40
- COCCNC(=O)c1c(NC(=O)CC(C)(C)C)sc2c1CCOC2: 6.31
- CC(C)(C)CC(=O)Nc1sc2c(c1C(=O)N1CCC(F)(F)CC1)CCCC2: 8.33
- O=C(Nc1sc2c(c1C(=O)N1CC(F)(F)C1)CCOC2)c1c(F)cccc1C(F)(F)F: 8.19
- O=C(Nc1sc2c(c1C(=O)N1CC(F)(F)C1)CCOC2)c1ccccc1OC(F)(F)F: 8.33

Which pEC50 is reported with Cannabinoid receptor 2 (Homo sapiens, UniProt P34972) for this entry: `COCCNC(=O)c1c(NC(=O)C2CCCC2)sc2c1CCOC2` ? 6.50

Would you mind doing `O=C(Nc1sc2c(c1C(=O)N1CCCCC1)CCOC2)c1c(F)cccc1C(F)(F)F` as well? 7.85

Would you mind doing `O=C(Nc1sc2c(c1C(=O)N1CCC(F)(F)CC1)CCOC2)c1c(F)cccc1C(F)(F)F` as well? 8.44

Would you mind doing `COCC(C)(C)NC(=O)c1c(NC(=O)c2ccccc2OC(F)(F)F)sc2c1CCOC2` as well? 7.00

Would you mind doing `O=C(Nc1sc2c(c1C(=O)N1CCOCC1)CCOC2)c1ccccc1-c1ccccc1` as well? 5.10

Would you mind doing `COC1CN(C(=O)c2c(NC(=O)CN3CCCCC3)sc3c2CCCC3)C1` as well? 6.66

Would you mind doing `COCCNC(=O)c1c(NC(=O)CN2CCCCC2)sc2c1CCCC2` as well? 6.82

Would you mind doing `O=C(Nc1sc2c(c1C(=O)N1CCOCC1)CCOC2)c1ccccc1OC(F)(F)F` as well? 6.99

Would you mind doing `O=C(Nc1sc2c(c1C(=O)N1CCOCC1)CCOC2)c1cccc(OC(F)(F)F)c1` as well? 6.13

Would you mind doing `CC(C)(C)C(=O)c1c(NC(=O)c2ccccc2OC(F)(F)F)sc2c1CCOC2` as well? 6.03

Would you mind doing `COCCNC(=O)c1c(NC(=O)CC(C)(C)C)sc2c1C(C)(C)CC2` as well? 8.23

Would you mind doing `O=C(Nc1sc2c(c1C(=O)N1CCOCC1)CCOC2)c1ccc(Cl)cc1Cl` as well? 5.03
